Tested on: NCI-H226
PROTOCOL SUMMARY: NCI tumour cell line growth inhibition, 48 h
Active and inactive are the calls of the source. Cut-off read from the data, not from the text of the source: active = GI50 up to about 1.1 µM and inactive = higher.
Please respond with reported GI50 for every item in the list.

Look up GI50: "COc1cc2c[n+](C)c3c4cc(OC)c(OC)cc4c(OC)cc3c2cc1OC" 1.36 µM (inactive)

Look up GI50: C/C(=N\Nc1ccccc1)C(CN(C)C)C(c1ccccc1)c1c(O)c2ccccc2oc1=O (centres undefined) > 100 µM (inactive)

Look up GI50: "CN(CCN(C)Cc1ccc(Cl)c(Cl)c1)CCN1CCCC1" 39.1 µM (inactive)

Look up GI50: "C=CCN1C(=O)/C(=C/c2ccc(C)cc2)N=C1SC/C=C/C" > 100 µM (inactive)

Look up GI50: "CCCCSCc1nc2nc(Cl)c(Cl)nc2[nH]1" 33.7 µM (inactive)

Look up GI50: "Cc1ccc(N(Cc2ccccc2)Cc2ccccc2)cc1" > 100 µM (inactive)

Look up GI50: CC1=CC(O)C(C(O)(C(F)(F)F)C(F)(F)F)C(C)(C)C1 (centres undefined) > 10 µM (inactive)

Look up GI50: "CC1(C)OC(=O)C(c2ccsc2)C(=O)O1" > 100 µM (inactive)

Look up GI50: "COc1cc([N+](=O)[O-])ccc1NC(=O)C(F)(F)F" > 100 µM (inactive)

Look up GI50: "CSc1nn(C)cc2ncnc1-2" > 100 µM (inactive)

Look up GI50: "Cc1cccc(-n2c(N)c(-c3nc4ccccc4[nH]3)sc2=S)c1" 32.7 µM (inactive)

Look up GI50: "O=C1C(c2ccccc2)=[N+]([O-])c2cc([N+](=O)[O-])ccc21" 73.3 µM (inactive)

Look up GI50: "S=C(N/N=C(/c1ccccc1)c1ccccn1)N1CCCCCC1" 0.0379 µM (active)

Look up GI50: "O=C1C2=C(N[C@@H](c3ccccc3)[C@H](c3ccccc3)N2)C(=O)c2ccccc21" > 100 µM (inactive)

Look up GI50: Cc1cn(C2CC(O)C(COC(=O)NCCC(F)(F)C(F)(F)C(F)(F)C(F)(F)F)O2)c(=O)[nH]c1=O (centres undefined) > 100 µM (inactive)

Look up GI50: CC1OC(n2cc(F)c(=O)[nH]c2=O)C=CC1O (centres undefined) > 100 µM (inactive)

Look up GI50: "O=C(O)CN1CCNCCN(CC(=O)O)CC1" 9.93 µM (inactive)

Look up GI50: CCOC(=O)C1(Cc2ccc(C)cc2)Cc2ccc(C)cc2C1=O (centres undefined) 35.2 µM (inactive)

Look up GI50: O=C(Cc1ccccc1)NN1C(=O)C(Cl)C1c1ccccc1O (centres undefined) 10 µM (inactive)

Look up GI50: "CC(C)(C)c1cc(S(=O)(=O)O)c2oc(-c3ccccc3)cc(=O)c2c1" > 100 µM (inactive)

Look up GI50: "O=c1c(Cc2ccccc2)c(-c2ccccc2)[nH]n1C1=NCCN1" 46 µM (inactive)

Look up GI50: "O=C1Nc2c(Cl)cccc2/C1=N/Nc1ccccc1[N+](=O)[O-]" 36.1 µM (inactive)

Look up GI50: "CC1(C)N=c2c(ncn2Cc2ccccc2)=C(C(N)=O)N1" > 100 µM (inactive)

Look up GI50: "Cc1cc(S(=O)(=O)Nc2nc(Nc3ccc4ccccc4c3)n[nH]2)c(S)cc1Cl" 34.1 µM (inactive)
